Entries and their pKi values follow.
# Study System: T1, hMC4-R (human, UniProt P32245 1-332)
# T1 construct: whole, on cells; Assayed as membranes of CHO-K1 cells expressing the receptor; also called hMC-R receptor subtype 4; melanocortin-4 (MC4-R)
# T1 sequence (P32245 whole entry): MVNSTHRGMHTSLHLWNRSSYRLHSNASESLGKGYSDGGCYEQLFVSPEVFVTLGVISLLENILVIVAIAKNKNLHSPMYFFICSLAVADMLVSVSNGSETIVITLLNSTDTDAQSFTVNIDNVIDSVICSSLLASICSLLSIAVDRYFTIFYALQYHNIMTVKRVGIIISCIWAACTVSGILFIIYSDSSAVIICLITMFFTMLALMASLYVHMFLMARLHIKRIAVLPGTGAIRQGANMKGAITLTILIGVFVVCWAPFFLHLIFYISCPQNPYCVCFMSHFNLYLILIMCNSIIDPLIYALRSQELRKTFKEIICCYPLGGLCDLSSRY
# Protocol: competition with [125I]-NDP-α-MSH, CHO-K1 membranes
Bridge positions count the residues as written; N and C are the ends. Square brackets hold non-standard residues; d marks the D form. hPhe = N[C@@H](CCc1ccccc1)C(=O)O; Nle = CCCC[C@H](N)C(=O)O; GABA = NCCCC(=O)O
FYI, pKi means -log10 of a concentration in mol per litre.

Worked examples, 2 binders total:
Binder	pKi
Ac-[hPhe]DH[dF]RW[GABA]K-NH2 (lactam 2-8) [Ac-hPhe-c(Asp-His-D-Phe-Arg-Trp-Gaba-Lys)-NH2]	8.47
Ac-[Nle]D[dA]H[dF]RWK-NH2 (lactam 2-8; SMILES CCCC[C@H](NC(C)=O)C(=O)N[C@H]1CC(=O)NCCCC[C@@H](C(N)=O)NC(=O)[C@H](Cc2c[nH]c3ccccc23)NC(=O)[C@H](CCCNC(=N)N)NC(=O)[C@@H](Cc2ccccc2)NC(=O)[C@H](Cc2c[nH]cn2)NC(=O)[C@@H](C)NC1=O) [Ac-Nle-c(Asp-D-Ala-His-D-Phe-Arg-Trp-Lys)-NH2]	8.59

As a next step, examine the binder that follows.
Request: What measured pKi goes with Ac-[Nle]C[dA]H[dF]RWGC-NH2 (disulfide 2-9; SMILES CCCC[C@H](NC(C)=O)C(=O)N[C@H]1CSSC[C@@H](C(N)=O)NC(=O)CNC(=O)[C@H](Cc2c[nH]c3ccccc23)NC(=O)[C@H](CCCNC(=N)N)NC(=O)[C@@H](Cc2ccccc2)NC(=O)[C@H](Cc2c[nH]cn2)NC(=O)[C@@H](C)NC1=O) [Ac-Nle-c(Cys-D-Ala-His-D-Phe-Arg-Trp-Gly-Cys)-NH2] ?
Response: 8.52

Origin of measurements: patent US20120135923A1
